molecular target: UniProtKB P61169; assay: In vitro Dopamine receptor D2 affinity by using [3H]spiperone as the radioligand in rat limbic system at 1 uM concentration of compound; value may range from 1 to 2; format: tissue-based
Sequence (P61169 whole entry): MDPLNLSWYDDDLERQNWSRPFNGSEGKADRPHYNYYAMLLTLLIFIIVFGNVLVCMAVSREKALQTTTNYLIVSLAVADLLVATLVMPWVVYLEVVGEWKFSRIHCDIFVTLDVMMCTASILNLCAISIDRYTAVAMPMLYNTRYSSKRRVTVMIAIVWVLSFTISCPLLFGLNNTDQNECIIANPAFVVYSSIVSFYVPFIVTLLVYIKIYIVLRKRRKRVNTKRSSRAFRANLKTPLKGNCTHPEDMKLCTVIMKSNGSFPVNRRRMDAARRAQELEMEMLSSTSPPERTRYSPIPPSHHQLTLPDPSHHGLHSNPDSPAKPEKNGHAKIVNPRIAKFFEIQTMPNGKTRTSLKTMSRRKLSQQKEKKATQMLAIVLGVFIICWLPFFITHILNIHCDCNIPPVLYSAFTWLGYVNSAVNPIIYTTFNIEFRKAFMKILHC
attribute_measured: Ki (nM)
Give just the numeric value; nM need not be written.

Which Ki reading was recorded for the compound Fc1ccc(-n2c3c(c4cc(F)ccc42)CN(CCCCc2ccnc4ccccc24)CC3)cc1 ? 1

* * *

target: UniProt:P61169; test: In vitro Dopamine receptor D2 affinity by using [3H]spiperone as the radioligand in rat limbic system at 1 uM concentration of compound; value may range from […]; assay type: tissue-based
attribute_measured: pKi
// pKi is dimensionless: -log10 of concentration (M)

Which pKi reading was recorded for the compound Cl.Clc1ccc2[nH]c3c(c2c1)CN(CCCc1cccnc1)CC3 ? 6.90
